System: U2OS
assay_text: Incucyte cell viability with U2OS; also: unitless GR value; below 1 slowed growth and below 0 cell loss
Assay type: toxicity, cell-based
experimental_context: human, 18 h, 10 µM, compound concentration 10 uM, replicate number 2
# Growth Rate values compiled below
Lab note: write the figure by itself, no unit.

Entry Cc1ccc2c(N)c(C(=O)NC3CCc4cc(N5CC6CCC(C5)N6)ccc4C3)sc2n1.O=CO (stereo not given) : reported Growth Rate = ? 0.15

Entry CC(C)(C)C(=O)NCc1ccc(Cl)c(C(=O)Nc2ncc[nH]2)c1 : reported Growth Rate = ? 0.97

Entry O=C1Nc2nc(-c3c(O)cccc3OCC3CC3)cc([C@@H]3CCCNC3)c2CO1 : reported Growth Rate = ? 0.79

Entry CCN1CCN(Cc2ccc(Nc3ncc(F)c(-c4cc(F)c5nc(C)n(C(C)C)c5c4)n3)nc2)CC1 : reported Growth Rate = ? 0.56

Entry COc1cc(N(C)c2ccnc3ccc(C(F)(F)F)cc23)cc(OC)c1OC : reported Growth Rate = ? 0.92
